Reported values of protein stability index for individual entries
# Experimental Details: protein stability index of a GFP-peptide fusion (GPS, HEK-293T) (PSI 1-6); higher = more stable;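 note: 24-mer peptide tiles fused after GFP, lentivirally expressed, FACS-sorted into six equal bins by GFP/DsRed ratio, decoded by Illumina sequencing, PSI is the read-weighted mean bin number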
# Settings: treatment: MLN4924 1 uM, 8 h; c terminus: a fixed tail appended
In your answer, state the number alone without any accompanying words.

Chain Sequence: SNLQAMSTQMFQTKRCFRLAPTFS [SMG5]
Measured Parameter: protein stability index
Readout Value: 2.2

Documented protein stability index of IFSIVFVFFVCFVPYHIARIPYTK [P2RY14] : 3

Documented protein stability index of AAESPDPPQSPQGASSLPTTMNYP [MAGEA3] : 5.3

Documented protein stability index of LFAGFLPRIIKAAPSCAIMISTYE [SLC25A39] : 3.21

Documented protein stability index of KTPLHQKHAAFVTPDQKYSMDNTP [MYBL2] : 4.23

Documented protein stability index of WGHCEVTMRYINGLDPEPLPLMDL [SPSB4] : 2.5

Documented protein stability index of YAATTTPFTPLHIKVKPKRVGIFL [TRIM39] : 2.81

----------
# Experimental Details: protein stability index of a GFP-peptide fusion (GPS, HEK-293T) (PSI 1-6); higher = more stable
# Settings: treatment: MLN4924 1 uM, 8 h; c terminus: a fixed tail appended
Classification field: 1 (yes) = protein stability index at or over 4; 0 (no) = protein stability index under 4.

// below: answered sequences
Chain Sequence: TTSETQKSVQCGTWTKHAEGGIFT [NETO1]
Group: 0 (no)
//
Chain Sequence: NIGINGNHSLETCETTLFALRMAT [PTGFR]
Group: 0 (no)
//
Chain Sequence: EGYTWRVAQLEDRRSTTDLRGTQF [ZSWIM9]
Group: 0 (no)
//
Chain Sequence: DNHMSDKDESCYDNAEAAFSDDEE [INTS3]
Group: 1 (yes)
//
Chain Sequence: WLRVLNPDLVKGPWTKEEDQKVIE [MYBL2]
Group: 0 (no)

Qu. Decide: is the reported value of protein stability index for QPGLLHLQSCGDLHTFTPAGRPRA [FAM189A2] equal to or greater than 4?
Ans. 1 (yes)

Qu. Decide: is the reported value of protein stability index for MPAAGLAVQLRHAWNPEDRSLNVF [SPSB4] equal to or greater than 4?
Ans. 0 (no)

Qu. Decide: is the reported value of protein stability index for PETQLFWDKEPWFWHDTLTEQLWR [TLE6] equal to or greater than 4?
Ans. 0 (no)

Qu. Decide: is the reported value of protein stability index for DQLLLATGLNNGRIKIWDVYTGKL [WSB1] equal to or greater than 4?
Ans. 0 (no)

Qu. Decide: is the reported value of protein stability index for QQAALPRLSRRMASQHSYPLNRFS [CBY2] equal to or greater than 4?
Ans. 0 (no)

Qu. Decide: is the reported value of protein stability index for SQMVSTDNSLSSQNYISQKEDASE [MIA2] equal to or greater than 4?
Ans. 1 (yes)

Qu. Decide: is the reported value of protein stability index for NESKGTRESWDSAKKLPPVQESQS [ELOA2] equal to or greater than 4?
Ans. 1 (yes)

----------
Reported values of protein stability index for individual entries
# Experimental Details: protein stability index of a GFP-peptide fusion (GPS, HEK-293T) (PSI 1-6); higher = more stable
# Settings: treatment: MLN4924 1 uM, 8 h; c terminus: a fixed tail appended
In your answer, state the number alone without any accompanying words.

The cases that follow already have their protein stability index on record.
Chain Sequence: PCWKITLFVIVPVLGPLVALIICY [MOG]
protein stability index: 2.88

Chain Sequence: LYPFQIHSIALSTFASLIGPFGGF [CDS1]
protein stability index: 3.09

Chain Sequence: EEVSTLNAQIPELKSDLEKASALN [CD207]
protein stability index: 5.24

Chain Sequence: MEAADASRSNGSSPEARDARSPSG [TRIM29]
protein stability index: 5.5

Documented protein stability index of DSAKREVKQKISPYFKSNDVVCKN [FAN1] : 4

Documented protein stability index of REEEKTFWKKYRTFWKEDKAFWKE [CCDC70] : 2.75

Documented protein stability index of GGTPHCEPCQLPSESPGSLSEVLA [DNAAF3] : 4.56

Documented protein stability index of KVVSRAENLSVPVIGALLRFNQAI [LPCAT4] : 2.18

Documented protein stability index of TQEPIFTFTASFSGKVFPFFAVWK [TRIM15] : 2.89

Documented protein stability index of PRQADHDDHECCERVVINISGLRF [KCNA1] : 3.33

Documented protein stability index of GVKSRIQALRQMNEGAIDCVNYEG [DLC1] : 3.87

Documented protein stability index of MADVINVSVNLEAFSQAISAIQAL [MED27] : 2.23

Documented protein stability index of AQEEPWEKKESLGAAQEALSIQLQ [ZNF232] : 5

Documented protein stability index of NLVARHPLFSEDVVLKLFLSFSGS [SNX8] : 2.33

Documented protein stability index of KTLRVWDLKDDGNMMKVLRGHQNW [WSB1] : 2.4

----------
# Experimental Details: protein stability index of a GFP-peptide fusion (GPS, HEK-293T) (PSI 1-6); higher = more stable
# Settings: treatment: DMSO; c terminus: a fixed tail appended
Classification field: true (1) = protein stability index at or over 4; false (0) = protein stability index under 4.

// below: answered sequences
Chain Sequence: EEVSTLNAQIPELKSDLEKASALN [CD207]
Group: true (1)

Chain Sequence: RVRGRVGTIRPVRCPSSSLHMSQR [C22orf15]
Group: false (0)

Chain Sequence: YDILPLSPVSRNRLAQVKRKILVL [CTDNEP1]
Group: false (0)

Chain Sequence: TCQKFLIQYNRRQLLILLQNCTDE [POP5]
Group: false (0)

Chain Sequence: DKHGCPAYVSPEILNTTGTYSGKA [TRIB1]
Group: true (1)

Chain Sequence: FKSFQYPLPWSECPVVRNGSVAVV [SLC6A17]
Group: false (0)

Qu. Decide: is the reported value of protein stability index for NQNSWGTGEDVKVILKNSQGEEVA [LMNB1] equal to or greater than 4?
Ans. true (1)

Qu. Decide: is the reported value of protein stability index for LTKDEAAAHLKLTSIEEGYERSFI [IQUB] equal to or greater than 4?
Ans. false (0)

Qu. Decide: is the reported value of protein stability index for FYSNLILQHEERETRQKKLEVAME [STK38L] equal to or greater than 4?
Ans. false (0)

Qu. Decide: is the reported value of protein stability index for ELRPRRGRCGPQAARAAGRDVAAE [POMT2] equal to or greater than 4?
Ans. false (0)

Qu. Decide: is the reported value of protein stability index for QLDIASQSLDQEILLKVKTEIEEE [BCL2L13] equal to or greater than 4?
Ans. true (1)

Qu. Decide: is the reported value of protein stability index for SPSSDRVSAIIWEGNECKKMDMSV [PHTF1] equal to or greater than 4?
Ans. false (0)

----------
# Experimental Details: protein stability index of a GFP-peptide fusion (GPS, HEK-293T) (PSI 1-6); higher = more stable
# Settings: treatment: MLN4924 1 uM, 8 h; c terminus: a fixed tail appended
Measured Parameter: protein stability index
In your answer, state the number alone without any accompanying words.

Chain Sequence: TLLQDHENQRLFEMLGRKCLTLAT [WAS]
protein stability index: 2.33
--
Chain Sequence: SLPQNQCYMATTKSQTACLPFVLA [EHMT1]
protein stability index: 2.23
--
Chain Sequence: YLQKIEEFAEMVEREEEDDALDSE [KCNG1]
protein stability index: 5.15
--
Chain Sequence: VRGHHPKSGEEAVTVLEDLEKGLE [ZNF232]
protein stability index: 4.72

Documented protein stability index of ETDVWFSKQRKDFEGMAFLETEQG [GMCL1] : 4.45

Documented protein stability index of EIERAIKQTQCPADPLQLNKALSI [FEM1C] : 3.28

Documented protein stability index of RATNHLDQVPSMQDGSESFFFRHG [SPAG8] : 3.62

Documented protein stability index of QPQDRNQALGTHRPVNKLAELQCE [RASAL3] : 4.88

Documented protein stability index of KESLETPSNGRIDIKQLIAKKIKL [SOAT1] : 2.94

Documented protein stability index of TDSDDDFDMSRYSSSGYSSAEINQ [FAM219A] : 5.22

Documented protein stability index of LMVGPNFRVGKKIGCGNFGELRLG [CSNK1G3] : 2.58

Documented protein stability index of PSPPPGSHYTSPSENMWNTGSTYN [CARM1] : 3.81

Documented protein stability index of LEDLESELDDPGQPVSLRRRKREV [ZNF24] : 5.49

Documented protein stability index of RNPDQRKESLCISITVSKVDKDQP [FBXO34] : 3.88

Documented protein stability index of KIKAIMALVAAILLLVIIILIVMK [VAMP4] : 2.41
